- Target of assay: AcrB (Escherichia coli, UniProt P31224)
- Sequence (P31224 whole entry): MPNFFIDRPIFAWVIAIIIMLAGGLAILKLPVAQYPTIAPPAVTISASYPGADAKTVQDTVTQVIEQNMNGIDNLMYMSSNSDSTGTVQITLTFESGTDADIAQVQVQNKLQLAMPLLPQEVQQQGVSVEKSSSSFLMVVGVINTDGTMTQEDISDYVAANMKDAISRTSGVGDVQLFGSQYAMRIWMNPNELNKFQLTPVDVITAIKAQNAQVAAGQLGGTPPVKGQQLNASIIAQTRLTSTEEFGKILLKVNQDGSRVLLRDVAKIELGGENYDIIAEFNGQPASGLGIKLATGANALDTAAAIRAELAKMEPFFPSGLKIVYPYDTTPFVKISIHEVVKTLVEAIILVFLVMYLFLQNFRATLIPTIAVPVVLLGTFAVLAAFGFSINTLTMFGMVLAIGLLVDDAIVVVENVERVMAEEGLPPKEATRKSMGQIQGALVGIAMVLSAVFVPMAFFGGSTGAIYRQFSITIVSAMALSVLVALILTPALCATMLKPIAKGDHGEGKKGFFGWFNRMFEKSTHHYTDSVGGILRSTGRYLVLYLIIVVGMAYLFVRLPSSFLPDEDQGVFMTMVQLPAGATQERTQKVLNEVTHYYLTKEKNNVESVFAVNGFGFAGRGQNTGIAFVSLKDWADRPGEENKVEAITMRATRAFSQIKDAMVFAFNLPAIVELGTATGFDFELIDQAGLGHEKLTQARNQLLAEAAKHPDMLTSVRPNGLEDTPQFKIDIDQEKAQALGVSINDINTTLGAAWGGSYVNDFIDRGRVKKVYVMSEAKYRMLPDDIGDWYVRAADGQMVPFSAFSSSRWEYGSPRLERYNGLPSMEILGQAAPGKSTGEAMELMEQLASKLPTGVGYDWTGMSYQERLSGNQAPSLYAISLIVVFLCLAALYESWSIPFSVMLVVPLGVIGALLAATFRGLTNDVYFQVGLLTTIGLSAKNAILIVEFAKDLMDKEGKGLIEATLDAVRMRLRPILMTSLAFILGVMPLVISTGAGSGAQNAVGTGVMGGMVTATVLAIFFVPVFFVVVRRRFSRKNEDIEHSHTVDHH
Endpoint: pKd
The value called pKd is obtained by taking minus log10 of the concentration in mol/L.

// query pKd value for entry CCN=c1cc2oc3cc(NCC)c(C)cc3c(-c3ccccc3C(=O)OCC)c-2cc1C [rhodamine 6G]
7.28
